- Organism: Rattus norvegicus
- Test protocol: Antioxidant activity in Wistar albino rat assessed as inhibition of catalase activity
- Format: functional, organism-based
- Settings: Rattus norvegicus, Wistar albino; read-out: EC50
Measurement type: EC50 (µg/mL)
Express your answer in µg/mL, writing the number without its unit.

### Prompt Given CCOC(=O)C1c2ccccc2CN1P1(=S)Oc2ccccc2CN1c1ccc(N2Cc3ccccc3OP2(=S)N2Cc3ccccc3C2C(=O)OCC)cc1 (centres undefined) , state its recorded EC50.
### Response 1.68

### Prompt Given COC(=O)C(Cc1ccccc1)NP1(=S)Oc2ccccc2CN1c1ccc(N2Cc3ccccc3OP2(=S)NC(Cc2ccccc2)C(=O)OC)cc1 (centres undefined) , state its recorded EC50.
### Response 2.2

### Prompt Given COC(=O)C(C)NP1(=S)Oc2ccccc2CN1c1ccc(N2Cc3ccccc3OP2(=S)NC(C)C(=O)OC)cc1 (centres undefined) , state its recorded EC50.
### Response 5.28

### Prompt Given CCCC(NP1(=S)Oc2ccccc2CN1c1ccc(N2Cc3ccccc3OP2(=S)NC(CCC)C(=O)OC)cc1)C(=O)OC (centres undefined) , state its recorded EC50.
### Response 3.98
